The measured values listed here are drawn from paper PMC11681614.

Target: hSSADH (human succinic semialdehyde dehydrogenase) (Homo sapiens, UniProt P51649, E306Q)
Construct: purified recombinant homotetramer, expressed and purified as in Didiasova et al. 2024
Test: intrinsic fluorescence quenching (ex […] nm, em […] nm), hyperbolic fit
Conditions: read-out: K DNAD+
Value kind: Kd (µM)
A number alone suffices; assume µM.

Request the reported Kd associated with `NC(=O)c1ccc[n+]([C@@H]2O[C@H](COP(=O)([O-])OP(=O)(O)OC[C@H]3O[C@@H](n4cnc5c(N)ncnc54)[C@H](O)[C@@H]3O)[C@@H](O)[C@H]2O)c1`
4.3

###

Target: hSSADH (human succinic semialdehyde dehydrogenase) (Homo sapiens, UniProt P51649, K214A)
Construct: purified recombinant homotetramer, expressed and purified as in Didiasova et al. 2024
Sequence (P51649 48-535 K214A): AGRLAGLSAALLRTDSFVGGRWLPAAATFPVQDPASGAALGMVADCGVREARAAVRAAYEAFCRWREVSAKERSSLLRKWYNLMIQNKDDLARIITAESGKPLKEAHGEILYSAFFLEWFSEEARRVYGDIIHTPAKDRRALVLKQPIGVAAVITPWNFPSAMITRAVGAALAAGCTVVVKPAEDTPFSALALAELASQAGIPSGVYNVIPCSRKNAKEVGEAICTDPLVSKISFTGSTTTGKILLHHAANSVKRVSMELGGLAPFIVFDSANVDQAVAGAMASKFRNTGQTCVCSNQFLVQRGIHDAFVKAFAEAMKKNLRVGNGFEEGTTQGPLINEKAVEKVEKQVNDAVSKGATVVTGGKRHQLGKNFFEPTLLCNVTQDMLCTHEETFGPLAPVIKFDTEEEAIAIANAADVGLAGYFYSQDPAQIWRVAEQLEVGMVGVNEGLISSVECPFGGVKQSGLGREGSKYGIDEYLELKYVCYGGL
Test: intrinsic fluorescence quenching (ex […] nm, em […] nm), hyperbolic fit
Conditions: read-out: K DNAD+
Value kind: Kd
I'd appreciate it if you wrote the number followed by its unit.

Request the reported Kd associated with `NC(=O)c1ccc[n+]([C@@H]2O[C@H](COP(=O)([O-])OP(=O)(O)OC[C@H]3O[C@@H](n4cnc5c(N)ncnc54)[C@H](O)[C@@H]3O)[C@@H](O)[C@H]2O)c1`
2500 nM
